# protocol notes: Example 6 pharmacokinetics assay for efficacy study (plasma, liver)
# Type: in vivo, BALB/c nude mice
# experimental parameters: mouse, liver, po, 100 mg/kg, p.o., QD × 21 days, read-out: Concentration in Liver (mean ± SEM)
quantity name: concentration at 6 h (ng/g)

{"columns": ["compound", "quantity name", "output unit", "measured"],
 "data": [
  ["CC(C)(C)c1nc(-c2cccc(NS(=O)(=O)c3c(F)cccc3F)c2F)c(-c2ccnc(N)n2)s1 [Dabrafenib, dabrafenib, reference compound]", "concentration at 6 h", "ng/g", 216]
]}

====

# protocol notes: Pharmacokinetics in female BALB/c nude mice bearing A375 xenografts, 1 day dosing (PK and PD study): plasma, tumor and brain concentrations, AUC
# Format: in vivo
# experimental parameters: mouse, tumor, po, 1 mg/kg, 1 mg/kg p.o. TID × 1 day; post 3rd dose; 1 h; read-out: Mean Concentration in Tumor ± SEM

{"columns": ["molecule", "concentration at 1 h, ng/g"],
 "data": [
  ["CCN(C)S(=O)(=O)Nc1ccc(F)c(Oc2ccc3ncn(C4CC5(CCN(C6CC7(C6)CN(c6cc8c(cc6F)c(N6CCC(=O)NC6=O)nn8C)C7)CC5)C4)c(=O)c3c2)c1C#N (stereo not shown)", 152]
]}
